// values below are reported OD450
target: T1, human MSLN-R2-his protein (human, UniProt Q13421 391-486); assay: ELISA, coated antigen; antibody 0.001 nM
T1 construct: also called human MSLN-R2 protein; hMSLN-R2-his; not shown: His tag
T1 sequence (Q13421 other isoform, or with tags, fused parts or gaps): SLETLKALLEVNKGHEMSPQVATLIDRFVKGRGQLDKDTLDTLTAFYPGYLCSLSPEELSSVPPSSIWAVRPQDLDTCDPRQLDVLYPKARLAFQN
Number only, in OD450; omit the unit.

binder	value unit	OD450
S009-F3.7.3 (antibody, human IgG1, kappa, V domains shown, Human-murine chimeric antibody: murine VH/VL on human IgG1 heavy chain constant region and human kappa constant region) VH: EVNFEESGGGLVQPGGSMKLSCVASGFTFSNYWMNWVRQSPEKGLEWVAQIRLKSDNYATHYAESVKGRFTISRDDFKSSVYLQMNNLRAEDTGIYYCTVGTGGYWGQGTTLTVSS VL: DIVLTQSPASLAMSLGKRATISCRASESVSIVGTNVIHWFQQKPGQPPKLLIYHASNLETGVPARFSGSGSGTDFTLTIDPVEEDDVAIYHCLQSRKIPWTFGGGTKLEIKR	OD450	0.07

For the next question, use this binder.
query: Please report the recorded OD450 for S009-F3.38.10 (antibody, human IgG1, kappa, V domains shown, Human-murine chimeric antibody, human IgG1/kappa constant regions) VH: EVQLQQSGPVLVKPGASVKMSCEASGYIFTDYYMNWVKKSHGKSLEWIGVINPKNGVISHNQKFKGKATLTVDKSSNTAYMELSSLTSEDSAVYYCANYGSRFYAMDYWGQGTSVTVSS VL: DVVMTQTPLSLPVSLGDQASISCRSSQSLIHSDGNTYLQWYLQKSGQSPKLLIYKVSNRFSGVPDRFSGSGSGTDFTLKISRVETEDLGVYFCSQTTHVPFTFGSGTKLEIKR .
result: 0.06
